Provenance of the data: patent US20250034266A1

- assayed-target: T1, human CCR8 (human, UniProt P51685 1-355)
- T1 construct: whole, on cells; also called hCCR8
- T1 sequence (P51685 whole entry): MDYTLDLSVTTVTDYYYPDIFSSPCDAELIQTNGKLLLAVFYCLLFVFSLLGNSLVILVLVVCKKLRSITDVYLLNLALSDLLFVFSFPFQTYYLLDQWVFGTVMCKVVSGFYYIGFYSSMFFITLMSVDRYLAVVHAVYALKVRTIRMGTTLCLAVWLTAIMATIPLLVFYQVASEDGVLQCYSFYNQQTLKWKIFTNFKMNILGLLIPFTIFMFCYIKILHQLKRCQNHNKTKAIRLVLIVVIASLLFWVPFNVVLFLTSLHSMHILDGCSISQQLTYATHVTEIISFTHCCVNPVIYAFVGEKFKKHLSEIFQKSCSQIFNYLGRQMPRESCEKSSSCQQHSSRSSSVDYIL
- assay-procedure: FACS, competition with CCL1 on CHO-K1-human CCR8 cells
result-type: IC50 (nM)
One number for each entry, in nM.

Hu149-9 (antibody, human IgG1, V domains shown, humanized, human IgG1; also called Hu149-9 HuIgG1) VH: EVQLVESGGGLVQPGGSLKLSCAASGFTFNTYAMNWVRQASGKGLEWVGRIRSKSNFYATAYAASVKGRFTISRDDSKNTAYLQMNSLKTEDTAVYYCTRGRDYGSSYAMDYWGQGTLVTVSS VL: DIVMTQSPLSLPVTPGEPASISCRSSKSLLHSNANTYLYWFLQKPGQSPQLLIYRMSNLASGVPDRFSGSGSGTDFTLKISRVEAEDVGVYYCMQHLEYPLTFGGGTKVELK = 0.087
Hu149-17 (antibody, human IgG1, V domains shown, human IgG1) VH: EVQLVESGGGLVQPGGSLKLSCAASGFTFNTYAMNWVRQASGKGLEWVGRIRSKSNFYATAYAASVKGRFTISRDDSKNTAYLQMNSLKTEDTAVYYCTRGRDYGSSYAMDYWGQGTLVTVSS VL: DIVMTQSPLSLPVTPGEPASISCRSSKSLLHSNANTYLYWFLQKPGQSPQLLIYRMSNLASGVPDRFSGSGSGTDFTLKISRVEAEDVGVYYCMQHLSYPLTFGGGTKVELK = 0.0698

Required: IC50, one value per binder below.
1. Hu149-21 (antibody, human IgG1, V domains shown, human IgG1) VH: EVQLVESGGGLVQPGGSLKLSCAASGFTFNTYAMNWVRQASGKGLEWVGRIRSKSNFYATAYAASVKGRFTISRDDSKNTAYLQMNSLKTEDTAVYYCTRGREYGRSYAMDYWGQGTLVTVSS VL: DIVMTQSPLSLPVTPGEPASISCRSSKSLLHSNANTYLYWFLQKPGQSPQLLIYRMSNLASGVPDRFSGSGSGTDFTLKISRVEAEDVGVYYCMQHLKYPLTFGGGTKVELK
2. Hu149-20 (antibody, human IgG1, V domains shown, human IgG1) VH: EVQLVESGGGLVQPGGSLKLSCAASGFTFNTYAMNWVRQASGKGLEWVGRIRSKSNFYATAYAASVKGRFTISRDDSKNTAYLQMNSLKTEDTAVYYCTRGKEYGSSYAMDYWGQGTLVTVSS VL: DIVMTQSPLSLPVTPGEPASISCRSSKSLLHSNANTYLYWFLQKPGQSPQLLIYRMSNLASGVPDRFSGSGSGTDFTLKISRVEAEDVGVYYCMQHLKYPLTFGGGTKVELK

Response given:
1: 0.796; 2: 0.147
